Activity for assorted compounds
# Tested on: Raji
# assayComment: Inhibition of 12-O-tetradecanoylphorbol-13-acetate-induced EBV-early antigen activation in human Raji cells assessed as EA activation at 100 molar ratio after 48 hrs relative to TPA
# Type: cell-based
# Set-up: scale not given: the % may be the effect or the level left
# conditionParameters: human gammaherpesvirus 4
The answer consists of two parts: a number and, after it, its unit.

compound: C[C@@]12CCC[C@@](C)(C(=O)O)[C@H]1CC[C@]13CC(=O)[C@](C)(C1)[C@H](O)C[C@H]32
recordedValue: 75.1%
//
compound: C[C@@]12CC[C@H]3[C@]4(C)CCC[C@@](C)(C(=O)O)[C@H]4C[C@H](O)[C@]3(CC1=O)C2
recordedValue: 76.3%
//
compound: C=C1C[C@@]23CC[C@H]4[C@@](C)(CCC[C@@]4(C)C(=O)O[C@@H]4O[C@H](CO)[C@@H](O)[C@H](O)[C@H]4O)[C@@H]2CC[C@]1(O[C@@H]1O[C@H](CO)[C@@H](O)[C@H](O)[C@H]1O[C@@H]1O[C@H](CO)[C@@H](O)[C@H](O)[C@H]1O)C3 [STEVIOSIDE]
recordedValue: 78.9%
//
compound: C[C@@]12C[C@H](O)[C@@H]3[C@@](CC[C@H]4[C@@]3(C)CCC[C@@]4(C)C(=O)O)(CC1=O)C2
recordedValue: 74.1%
//
compound: C[C@@]12CC[C@@H]3[C@@](CC1=O)(C2)C(=O)C[C@H]1[C@@]3(C)CCC[C@@]1(C)C(=O)O
recordedValue: 72.3%

Ask: Please look up its Activity: `C[C@@]12CCC[C@@](C)(C(=O)O)[C@H]1CC[C@@]13CC(=O)[C@@](CO)(CC[C@H]12)C3`
Result: 77%

Ask: Need Activity of `C[C@@]12CC[C@@H]3[C@@](CC[C@H]4[C@@]3(C)CCC[C@@]4(C)C(=O)O)(CC1=O)C2` , thanks.
Result: 80%
